Test system: C. glabrata T-190 (11-304)
Assay: MIC, broth double dilution
Assay type: cell-based
Settings: strain no. 42, T-190 (11-304), clinical isolate

{"columns": ["Compound", "Inequality operator", "MIC, µg/mL"],
 "data": [
  ["C#CCOc1ccc([C@H](O)[C@@H](O)[C@@H]2NC(=O)[C@@H]3C[C@@H](O)CN3C(=O)[C@H]([C@@H](C)O)NC(=O)[C@@H](NC(=O)CCCCCCCC[C@@H](C)C[C@@H](C)CC)C[C@@H](O)[C@@H](NCCN)NC(=O)[C@@H]3[C@@H](O)CCN3C(=O)[C@H]([C@H](O)CCN)NC2=O)cc1", "=", 0.5],
  ["CC[C@H](C)C[C@H](C)CCCCCCCCC(=O)N[C@H]1C[C@@H](O)[C@@H](NCCNC(=O)CCc2ccc3n2[B-](F)(F)[N+]2=C(C)C=C(C)C2=C3)NC(=O)[C@@H]2[C@@H](O)CCN2C(=O)[C@H]([C@H](O)CCN)NC(=O)[C@H]([C@H](O)[C@@H](O)c2ccc(O)cc2)NC(=O)[C@@H]2C[C@@H](O)CN2C(=O)[C@H]([C@@H](C)O)NC1=O", "=", 1],
  ["CN(C)c1ccc2c(-c3ccc(C(=O)NCCCN=[N+]=[N-])cc3C(=O)[O-])c3ccc(=[N+](C)C)cc-3oc2c1 [Compound 5-TMR-azide]", ">", 64]
]}

---

Test system: C. glabrata TGL00275
Experiment: microbe, parasite or virus in culture
Type: cell-based
Settings: strain no. 32, TGL00275, FKS mutant
Readings of MIC for the listed compounds

{"columns": ["Compound", "System", "Reading unit", "Inequality operator", "MIC"],
 "data": [
  ["C#CCOc1ccc([C@H](O)[C@@H](O)[C@@H]2NC(=O)[C@@H]3C[C@@H](O)CN3C(=O)[C@H]([C@@H](C)O)NC(=O)[C@@H](NC(=O)CCCCCCCC[C@@H](C)C[C@@H](C)CC)C[C@@H](O)[C@@H](NCCN)NC(=O)[C@@H]3[C@@H](O)CCN3C(=O)[C@H]([C@H](O)CCN)NC2=O)cc1", "C. glabrata TGL00275", "µg/mL", "=", 16],
  ["CC[C@H](C)C[C@H](C)CCCCCCCCC(=O)N[C@H]1C[C@@H](O)[C@@H](NCCN)NC(=O)[C@@H]2[C@@H](O)CCN2C(=O)[C@H]([C@H](O)CCN)NC(=O)[C@H]([C@H](O)[C@@H](O)c2ccc(OCc3cn(CCCNc4ccc([N+](=O)[O-])c5nonc45)nn3)cc2)NC(=O)[C@@H]2C[C@@H](O)CN2C(=O)[C@H]([C@@H](C)O)NC1=O", "C. glabrata TGL00275", "µg/mL", ">", 64],
  ["CN(C)c1ccc2c(-c3ccc(C(=O)NCCCN=[N+]=[N-])cc3C(=O)[O-])c3ccc(=[N+](C)C)cc-3oc2c1 [Compound 5-TMR-azide]", "C. glabrata TGL00275", "µg/mL", ">", 64],
  ["CC[C@H](C)C[C@H](C)CCCCCCCCC(=O)N[C@H]1C[C@@H](O)[C@@H](NCCNC(=O)CCc2ccc3n2[B-](F)(F)[N+]2=C(C)C=C(C)C2=C3)NC(=O)[C@@H]2[C@@H](O)CCN2C(=O)[C@H]([C@H](O)CCN)NC(=O)[C@H]([C@H](O)[C@@H](O)c2ccc(O)cc2)NC(=O)[C@@H]2C[C@@H](O)CN2C(=O)[C@H]([C@@H](C)O)NC1=O", "C. glabrata TGL00275", "µg/mL", ">", 64],
  ["CC[C@H](C)C[C@H](C)CCCCCCCCC(=O)N[C@H]1C[C@@H](O)[C@@H](NCCN)NC(=O)[C@@H]2[C@@H](O)CCN2C(=O)[C@H]([C@H](O)CCN)NC(=O)[C@H]([C@H](O)[C@@H](O)c2ccc(OCc3cn(CCCNC(=O)c4ccc(-c5c6ccc(=[N+](C)C)cc-6oc6cc(N(C)C)ccc56)c(C(=O)[O-])c4)nn3)cc2)NC(=O)[C@@H]2C[C@@H](O)CN2C(=O)[C@H]([C@@H](C)O)NC1=O", "C. glabrata TGL00275", "µg/mL", "=", 64]
]}
